// provenance: the supplement of paper PMC9492666

// values below are reported relative cell viability
Tested on: MDA-MB-231;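 note: breast cancer cell viability read out with the CCK-8 kit after co-treatment of each compound with the ferroptosis inducer RSL3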
Experiment: relative cell viability, compound + RSL3, vs DMSO (fraction of DMSO control); higher = less growth inhibition
Details: 72 h
Structures can show the parent of a compound that is named as a salt.
quantity_kind: relative cell viability

* CS(=O)(=O)c1ccc(-c2nnc(/C=C/c3nnc(-c4ccc(C#N)cc4)o3)n2-c2ccccc2Cl)nc1 + COC(=O)c1ccc([C@H]2c3[nH]c4ccccc4c3C[C@H](C(=O)OC)N2C(=O)CCl)cc1 | 0.502
* C[C@H](CCC(=O)O)[C@H]1CC[C@H]2[C@@H]3C[C@H](O)[C@@H]4C[C@H](O)CC[C@]4(C)[C@H]3CC[C@]12C [Hyodeoxycholic acid] + COC(=O)c1ccc([C@H]2c3[nH]c4ccccc4c3C[C@H](C(=O)OC)N2C(=O)CCl)cc1 | 0.611
* CC(=O)O[C@H](CC=C(C)C)C1=CC(=O)c2c(O)ccc(O)c2C1=O [Acetyl shikonin] + COC(=O)c1ccc([C@H]2c3[nH]c4ccccc4c3C[C@H](C(=O)OC)N2C(=O)CCl)cc1 | 0.681
* CC(C)(O)[C@@H]1Cc2cc3ccc(=O)oc3cc2O1 [marmesin] + COC(=O)c1ccc([C@H]2c3[nH]c4ccccc4c3C[C@H](C(=O)OC)N2C(=O)CCl)cc1 | 0.59
* CC(C)c1cc(C(C)C)c(CC(=O)NS(=O)(=O)Oc2c(C(C)C)cccc2C(C)C)c(C(C)C)c1 [Avasimibe] + COC(=O)c1ccc([C@H]2c3[nH]c4ccccc4c3C[C@H](C(=O)OC)N2C(=O)CCl)cc1 | 0.511
* CC[C@H](C)C(=O)O[C@H]1C[C@@H](C)C=C2C=C[C@H](C)[C@H](CC[C@@H]3C[C@@H](O)CC(=O)O3)[C@H]21 [Lovastatin] + COC(=O)c1ccc([C@H]2c3[nH]c4ccccc4c3C[C@H](C(=O)OC)N2C(=O)CCl)cc1 | 0.491
* CC(C)(C)N1C(=O)C(Nc2ccc(N3CCCCC3)cc2)=C(c2ccccc2)S1(=O)=O + COC(=O)c1ccc([C@H]2c3[nH]c4ccccc4c3C[C@H](C(=O)OC)N2C(=O)CCl)cc1 | 0.69
* C/C=C(\CC[C@@H](C)[C@H]1CC[C@H]2[C@@H]3CC=C4C[C@@H](O)CC[C@]4(C)[C@H]3CC[C@]12C)C(C)C [Fucosterol] + COC(=O)c1ccc([C@H]2c3[nH]c4ccccc4c3C[C@H](C(=O)OC)N2C(=O)CCl)cc1 | 0.694
* O=c1cc(-c2ccc(O)c(-c3c(O)cc(O)c4c(=O)cc(-c5ccc(O)cc5)oc34)c2)oc2cc(O)cc(O)c12 [Amentoflavone] + COC(=O)c1ccc([C@H]2c3[nH]c4ccccc4c3C[C@H](C(=O)OC)N2C(=O)CCl)cc1 | 0.496
* NC(N)=NN=Cc1cccc(Cl)c1Cl [Raphin1] + COC(=O)c1ccc([C@H]2c3[nH]c4ccccc4c3C[C@H](C(=O)OC)N2C(=O)CCl)cc1 | 0.626
* CC(C)(Oc1ccc(CCNC(=O)c2ccc(Cl)cc2)cc1)C(=O)O [Bezafibrate] + COC(=O)c1ccc([C@H]2c3[nH]c4ccccc4c3C[C@H](C(=O)OC)N2C(=O)CCl)cc1 | 0.518
* CC1(N)CCN(c2cnc(-c3cccc(Cl)c3Cl)c(N)n2)CC1 [SHP099 hydrochloride] + COC(=O)c1ccc([C@H]2c3[nH]c4ccccc4c3C[C@H](C(=O)OC)N2C(=O)CCl)cc1 | 0.628
* COc1ccc(-c2cc(=O)c3c(O)c(OC)c(OC)c(OC)c3o2)cc1OC + COC(=O)c1ccc([C@H]2c3[nH]c4ccccc4c3C[C@H](C(=O)OC)N2C(=O)CCl)cc1 | 0.501
* CC(C)(Oc1ccc(C(=O)c2ccc(Cl)cc2)cc1)C(=O)O [Choline Fenofibrate] + COC(=O)c1ccc([C@H]2c3[nH]c4ccccc4c3C[C@H](C(=O)OC)N2C(=O)CCl)cc1 | 0.692
* CC(C)OC(=O)CCC/C=C\C[C@@H]1[C@@H](CC[C@@H](O)CCc2ccccc2)[C@H](O)C[C@@H]1O [Latanoprost] + COC(=O)c1ccc([C@H]2c3[nH]c4ccccc4c3C[C@H](C(=O)OC)N2C(=O)CCl)cc1 | 0.597
* CCCCCCCCCc1ccc(B(O)O)cc1 [4-Nonylphenylboronic acid] + COC(=O)c1ccc([C@H]2c3[nH]c4ccccc4c3C[C@H](C(=O)OC)N2C(=O)CCl)cc1 | 0.732
* Cc1cc(SCc2sc(-c3ccc(C(F)(F)F)cc3)nc2C)ccc1OCC(=O)O + COC(=O)c1ccc([C@H]2c3[nH]c4ccccc4c3C[C@H](C(=O)OC)N2C(=O)CCl)cc1 | 0.554
* CN1CC(O)C2=C/C(=N/NC(N)=O)C(=O)C=C21 (stereo not drawn) [Carbazochrome] + COC(=O)c1ccc([C@H]2c3[nH]c4ccccc4c3C[C@H](C(=O)OC)N2C(=O)CCl)cc1 | 0.551
